Where these numbers come from: patent US7176279

- system.tested: T1, hMC5-R (human, UniProt P33032 1-325)
- T1 construct: whole, on cells; Assayed as membranes prepared from transfected HEK 293 cells; also called MC5 receptor; melanocortin-5 receptor
- test.protocol: titrated competitive binding assay on receptor membranes
measured.attribute: Ki (nM)
A number alone suffices; assume nM.

For record XDHFKWK (N-terminal acetyl; Nle at 1 (X); D-Phe at 4; cyclo (lactam) between side chains of Asp 2 and Lys 7; C-terminal free acid (-OH), Synthetic cyclic heptapeptide; X = norleucine; also called Ac-Nle-cyclo( -Asp-His-D-Phe-Lys-Trp-Lsy)-OH) [Ac-Nle-cyclo(-Asp-His-D-Phe-Lys-Trp-Lys)-OH] the listed Ki is 2530
